# TARGET_OF_ASSAY: human mAChRM1 (Homo sapiens, UniProt P11229)
# Construct: host or cells: CHO-K1
# Sequence (P11229 whole entry): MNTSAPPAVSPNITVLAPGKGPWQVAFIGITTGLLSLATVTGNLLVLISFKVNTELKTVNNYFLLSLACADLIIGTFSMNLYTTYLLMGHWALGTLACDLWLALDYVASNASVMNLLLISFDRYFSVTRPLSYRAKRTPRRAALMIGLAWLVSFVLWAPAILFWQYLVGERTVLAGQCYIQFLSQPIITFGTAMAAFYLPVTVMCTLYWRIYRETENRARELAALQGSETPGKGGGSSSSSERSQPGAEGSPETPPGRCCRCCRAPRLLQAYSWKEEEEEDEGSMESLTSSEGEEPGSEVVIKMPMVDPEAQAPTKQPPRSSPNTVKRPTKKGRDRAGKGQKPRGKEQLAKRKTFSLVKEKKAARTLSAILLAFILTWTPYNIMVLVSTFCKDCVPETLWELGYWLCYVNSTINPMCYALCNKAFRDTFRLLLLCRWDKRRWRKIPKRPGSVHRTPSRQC
# PROTOCOL: mAChR M1 cell-based functional assay (calcium mobilization), positive allosteric modulator activity: increase in the EC20 acetylcholine response
# MEASUREMENT_CONDITIONS: PAM mode
QUANTITY_NAME: Emax (%)

Some entries whose results are on file:
> print(dat)
                                   molecule  unit.name  recorded.number
1  Cn1cc2c(-c3cc(F)c(CN4Cc5c(F)cccc5C4=O)c(F)c3)ccc(C(C)(C)O)c2n1          %               59
2  Cc1cc(-c2ccc(C(C)(C)O)c3nn(C)cc23)cc(Cl)c1CN1Cc2ncccc2C1=O          %               65

[A] Cn1cc2c(C(C)(C)O)cc(-c3ccc(CN4Cc5ncccc5C4=O)cc3)cc2n1
[B] [2H]C1([2H])c2ncccc2C(=O)N1Cc1c(F)cc(-c2ccc(C(C)(C)O)c3nn(C)cc23)cc1N1CCC1
Lookup: Pick one, A or B : lowest reported Emax. To answer, give the label that identifies your chosen option.
Found: A
(A: 48%, B: 85%)
